Assay: urinary excretion of pyridostigmine in rats
Type: in vivo, rat
Conditions: rat, urine, im, 0.45 mg/kg, over a 24-hour period, 450 μg/kg pyridostigmine bromide, read-out: urinary excretion of pyridostigmine (% of the total dose injected)
Description: For animal studies, rats weighing 175-225 g were placed in metabolic cages and deprived of solid food for 14 hours. For urine studies they were hydrated by the administration of 2.5 ml per 100 g of warm water by stomach tube. This was repeated after 1 hour. […] The assay was applied to the quantitation of pyridostigmine in urine and plasma of rats following the oral administration of 450 μg of pyridostigmine bromide per kg of body weight. […]
recorded metric: dose excreted at 24 h (%)
Reply with just the number (in %).

Documented dose excreted at 24 h of `CN(C)C(=O)Oc1ccc[n+](C)c1` : 60
